// data source = patent US20230286958A1

# SYSTEM UNDER TEST: Human plasma kallikrein (Homo sapiens (Human))
# ASSAY PROTOCOL: Kallikrein Assay (fluorogenic substrate Acetyl-K-P-R-AFC)
# RECORDED CONDITIONS: Plasma Kallikrein (PKal)
# Procedure: The effectiveness of a compound of the present invention as an inhibitor of Kallikrein can be determined using a relevant purified serine protease, and an appropriate synthetic substrate. The rate of hydrolysis of the chromogenic or fluorogenic substrate by the relevant serine protease was measured both in the absence and presence of compounds of the present invention. […] A decrease in the rate of fluorescence change in the presence of inhibitor is indicative of enzyme inhibition. […]
REPORTED ENDPOINT: IC50 (nM)

Cc1nc(Cn2cc(NC(=O)c3nc(-c4c(C(F)F)ccc(Cl)c4F)cnc3C(F)F)cn2)cnc1N1C[C@H]2C[C@H]2C1=O :: 1.6
C[C@@H](c1cnc(N2C[C@H]3C[C@H]3C2=O)nc1)n1cc(NC(=O)c2nc(-c3c(C(F)F)ccc(Cl)c3F)cnc2C(O)C(F)(F)F)cn1 (single isomer, unassigned) [Example 177] :: 47.8
COc1ncc(-c2c(OC(F)F)ccc(Cl)c2F)nc1C(=O)Nc1cnn(C(C)c2cnc(N3C[C@H]4C[C@H]4C3=O)c(C)n2)c1 (single isomer, unassigned) [Example 240] :: 0.4
O=C(Nc1cnn(Cc2cnc(N3C[C@H]4C[C@H]4C3=O)c(F)c2)c1)c1cncc(-c2c(C(F)F)ccc(Cl)c2F)n1 :: 5.5
Cc1cc(C(C)n2cc(NC(=O)c3nc(-c4c(C#N)ccc(Cl)c4F)cnc3C)cn2)cnc1N1C[C@H]2C[C@H]2C1=O (single isomer, unassigned) [Example 139] :: 0.9

I: C[C@@H](c1cnc(N2C[C@H]3C[C@H]3C2=O)nc1)n1cc(NC(=O)c2nc(-c3c(C(F)F)ccc(Cl)c3F)cnc2CO)cn1
II: Cc1cc(Cn2cc(NC(=O)c3nc(-c4c(C(F)F)ccc(Cl)c4F)cnc3C)cn2)cnc1N1C[C@H]2C[C@H]2C1=O
III: O=C(Nc1cnn(Cc2cnc(N3C[C@H]4C[C@H]4C3=O)c(Cl)c2)c1)c1cncc(-c2c(C(F)F)ccc(Cl)c2F)n1
Ask: Form: Sort by [IC50] Order [ ascending ] Would you mind listing the labels in the order asked for?
Reply: II, I, III

====

# SYSTEM UNDER TEST: Human plasma kallikrein (Homo sapiens (Human), UniProt P03952)
# Sequence (P03952 391-638): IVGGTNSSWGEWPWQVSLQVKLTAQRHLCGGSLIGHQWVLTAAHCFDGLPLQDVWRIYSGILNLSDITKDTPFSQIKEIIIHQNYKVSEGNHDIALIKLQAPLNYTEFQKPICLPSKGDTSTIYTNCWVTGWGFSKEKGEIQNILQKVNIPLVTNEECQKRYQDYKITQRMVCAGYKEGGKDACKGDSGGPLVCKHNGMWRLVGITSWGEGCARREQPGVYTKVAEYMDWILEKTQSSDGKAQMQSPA
# Sequence (P03952 20-390 partner): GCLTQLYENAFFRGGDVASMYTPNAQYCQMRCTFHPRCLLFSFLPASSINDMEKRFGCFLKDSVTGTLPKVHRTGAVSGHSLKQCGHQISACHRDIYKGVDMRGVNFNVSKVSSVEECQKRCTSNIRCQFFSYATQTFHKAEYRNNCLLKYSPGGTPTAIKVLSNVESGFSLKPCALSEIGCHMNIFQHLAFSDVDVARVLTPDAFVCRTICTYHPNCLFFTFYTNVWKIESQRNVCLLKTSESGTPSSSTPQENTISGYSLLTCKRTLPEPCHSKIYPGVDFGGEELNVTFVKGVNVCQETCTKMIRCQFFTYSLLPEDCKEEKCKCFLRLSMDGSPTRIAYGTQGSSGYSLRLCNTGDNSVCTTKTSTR
# ASSAY PROTOCOL: Kallikrein Assay (fluorogenic substrate Acetyl-K-P-R-AFC)
# RECORDED CONDITIONS: Plasma Kallikrein (PKal)
# Experimental: The effectiveness of a compound of the present invention as an inhibitor of Kallikrein can be determined using a relevant purified serine protease, and an appropriate synthetic substrate. The rate of hydrolysis of the chromogenic or fluorogenic substrate by the relevant serine protease was measured both in the absence and presence of compounds of the present invention. […] A decrease in the rate of fluorescence change in the presence of inhibitor is indicative of enzyme inhibition. […]
pIC50: −log10 of the molar value.
REPORTED ENDPOINT: pIC50

Consider the following illustrative entries.
Cc1nc(Cn2cc(NC(=O)c3nc(-c4c(C(F)F)ccc(Cl)c4F)cnc3C)cn2)ccc1N1C[C@H]2C[C@H]2C1=O :: 8.77
Cc1nc(C(C)n2cc(NC(=O)c3cncc(-c4c(OC(F)F)ccc(Cl)c4F)n3)cn2)cnc1N1C[C@H]2C[C@H]2C1=O (single isomer, unassigned) [Example 17] :: 9.15
O=C(Nc1cnn(C(CO)c2cnc(N3CC4CC4C3=O)nc2)c1)c1cncc(-c2c(C(F)F)ccc(Cl)c2F)n1 (single isomer, unassigned) :: 7.57
Cc1nc(Cn2cc(NC(=O)c3cncc(-c4c(C(F)F)ccc(Cl)c4F)n3)cn2)ccc1N1C[C@H]2C[C@H]2C1=O :: 8.47

I: [2H]C1([2H])C2CC2C(=O)N1c1ncc([C@H](C)n2cc(NC(=O)c3nc(-c4c(C(F)F)ccc(Cl)c4F)cnc3C)cn2)c(C)n1 (single isomer, unassigned) [Example 178]
II: Cc1ncc(-c2c(C(F)F)ccc(Cl)c2F)nc1C(=O)Nc1cnn(Cc2cnc(N3C[C@H]4C[C@H]4C3=O)c(C)n2)n1
III: Cc1ncc(-c2c(C(F)F)ccc(Cl)c2F)nc1C(=O)Nc1cnn(C(C)c2cnc(N3C[C@H]4C[C@H]4C3=O)c3c2OCO3)c1 (single isomer, unassigned) [Example 252]
IV: CC(c1cnc(N2CC3CC3C2=O)nc1)n1cc(NC(=O)c2cncc(-c3c(OC(F)F)ccc(Cl)c3F)n2)cn1 (single isomer, unassigned) [Example 72]
Ask: Order the entries by their reported pIC50, beginning at the minimum. Write the labels in rank order as requested.
Reply: I, IV, II, III
(I: 7.85, IV: 8.43, II: 8.85, III: 9.05)

====

# SYSTEM UNDER TEST: Human plasma kallikrein (Homo sapiens (Human))
# ASSAY PROTOCOL: Kallikrein Assay (fluorogenic substrate Acetyl-K-P-R-AFC)
# RECORDED CONDITIONS: Plasma Kallikrein (PKal)
pIC50: −log10 of the molar value.
REPORTED ENDPOINT: pIC50

Cc1nc(C(C)n2cc(NC(=O)c3nc(-c4c(C(F)F)ccc(Cl)c4F)cnc3CO)cn2)cnc1N1C[C@H]2C[C@H]2C1=O (single isomer, unassigned) [Example 197] :: 9.70
Cc1ncc(-c2c(C(F)F)ccc(Cl)c2F)nc1C(=O)Nc1cnn(C(C)c2ncc(N3C[C@H]4C[C@H]4C3=O)c(C)c2N)c1 (single isomer, unassigned) :: 9.00
CC(c1ccc(N2C[C@H]3C[C@H]3C2=O)nc1)n1cc(NC(=O)c2cncc(-c3c(C#N)ccc(Cl)c3F)n2)cn1 (single isomer, unassigned) [Example 90] :: 7.86
COCc1ncc(-c2c(C(F)F)ccc(Cl)c2F)nc1C(=O)Nc1cnn(C(C)c2cnc(N3C[C@H]4C[C@H]4C3=O)c(C)n2)c1 (single isomer, unassigned) :: 8.92
Cc1ncc(-c2c(C(F)F)ccc(Cl)c2F)nc1C(=O)Nc1cnn([C@H](C)c2cnc(N3C[C@H]4C[C@H]4C3=O)c(O)c2)c1 :: 8.55

1: Cc1c(C(C)n2cc(NC(=O)c3cncc(-c4c(C(F)F)ccc(Cl)c4F)n3)cn2)nnc(N2C[C@H]3C[C@H]3C2=O)c1C (single isomer, unassigned) [Example 110]
2: Cc1cc(C(C)n2cc(NC(=O)c3nc(-c4c(C#N)ccc(Cl)c4F)cnc3C)cn2)cnc1N1C[C@H]2C[C@H]2C1=O (single isomer, unassigned) [Example 140]
Ask: Hi team, can someone confirm which has the larger pIC50: 1 or 2 ? Thanks. API: response body contains the label of the selected item.
Reply: 2

====

# SYSTEM UNDER TEST: Human plasma kallikrein (Homo sapiens (Human))
# ASSAY PROTOCOL: Kallikrein Assay (fluorogenic substrate Acetyl-K-P-R-AFC)
# RECORDED CONDITIONS: Plasma Kallikrein (PKal)
REPORTED ENDPOINT: IC50 (nM)

Cc1nc(N2CCN(C)C2=O)ncc1[C@H](C)n1cc(NC(=O)c2nc(-c3c(C(F)F)ccc(Cl)c3F)cnc2C)cn1 :: 8.6

a: Cc1ncc(-c2c(C(F)F)ccc(Cl)c2F)nc1C(=O)Nc1cnn(Cc2cnc(N3C[C@H]4C[C@H]4C3=O)c(F)c2)c1
b: Cc1ncc(-c2c(C(F)F)ccc(Cl)c2F)nc1C(=O)Nc1cnn(Cc2cnc(N3C[C@H]4C[C@H]4C3=O)c3c2OCO3)c1
Ask: # returns the entry with the larger IC50; inputs a and b Answer format: the label of the selected item.
Reply: a
(a: 1.8 nM, b: 0.9 nM)

====

# SYSTEM UNDER TEST: Human plasma kallikrein (Homo sapiens (Human), UniProt P03952)
# ASSAY PROTOCOL: Kallikrein Assay (fluorogenic substrate Acetyl-K-P-R-AFC)
# RECORDED CONDITIONS: Plasma Kallikrein (PKal)
pIC50: −log10 of the molar value.
REPORTED ENDPOINT: pIC50

Sample records with pIC50:
Cc1ncc(-c2c(C(F)F)ccc(Cl)c2F)nc1C(=O)Nc1cnn([C@@H](C)c2cnc(N3C[C@H]4C[C@H]4C3=O)c(N)c2)c1 :: 8.89
Cc1ncc(-c2c(C(F)F)ccc(Cl)c2F)nc1C(=O)Nc1cnn(C(C)c2ncc(N3C[C@H]4C[C@H]4C3=O)cc2Cl)c1 (single isomer, unassigned) :: 8.54
CCc1nc(C(C)n2cc(NC(=O)c3cncc(-c4c(C(F)F)ccc(Cl)c4F)n3)cn2)cnc1N1C[C@H]2C[C@H]2C1=O (single isomer, unassigned) [Example 56] :: 8.82
CCc1ncc(-c2c(C(F)F)ccc(Cl)c2F)nc1C(=O)Nc1cnn(C(C)c2cnc(N3C[C@H]4C[C@H]4C3=O)c(C)c2)c1 (mixture of isomers) :: 8.92
Cc1nc(N2C[C@@H]3C[C@@H]3C2=O)ncc1[C@@H](CO)n1cc(NC(=O)c2cncc(-c3c(C(F)F)ccc(Cl)c3F)n2)cn1 :: 5.99

1: Cc1nc(N2C[C@H]3C[C@H]3C2=O)cnc1C(C)n1cc(NC(=O)c2cncc(-c3c(C(F)F)ccc(Cl)c3F)n2)cn1 (single isomer, unassigned)
2: Cc1cc(N2C[C@H]3C[C@H]3C2=O)ncc1C(C)n1cc(NC(=O)c2nc(-c3c(C(F)F)ccc(Cl)c3F)cnc2CO)cn1 (single isomer, unassigned) [Example 203]
Ask: Choose between 1 and 2 : whose measured pIC50 value is numerically larger? Answer by quoting the chosen item's label.
Reply: 2
